Below, each of the compounds is paired with its reported Photostability 24 hours value.
test: Photostability, percentage remaining undegraded under illumination or in the dark; conditions: percentage remaining undegraded after 24 hours illumination

# chemical string, result comparator, Photostability 24 hours (%)
measured = [
    ("Cc1cc2c(cc1C)C(=O)[C@]1(O)CCN(c3ccc4ccoc4c3)C1=N2", "<", 1),
    ("COc1cc(N2CC[C@@]3(O)C(=O)c4cc(F)c(C)cc4N=C23)ccn1", "=", 94.2),
    ("Cc1ccc2cc(N3CC[C@@]4(O)C(=O)c5cc(C)sc5N=C34)ccc2n1", "=", 58.1),
    ("Cc1cc2c(cc1C)C(=O)[C@]1(O)CCN(c3ccc4scnc4c3)C1=N2", "=", 6.5),
    ("Cc1ccc2c(c1)C(=O)[C@]1(O)CCN(c3cnc(C#N)c(Cl)c3)C1=N2", "=", 97.1),
    ("O=C1c2c(sc3c2CCCC3)N=C2N(c3ccc4ncccc4c3)CC[C@@]12O", "=", 74.6),
    ("Cc1cc2c(cc1F)C(=O)[C@]1(O)CCN(c3ccc4ccoc4c3)C1=N2", "<", 1),
    ("Cc1ccc2c(c1)C(=O)[C@]1(O)CCN(c3ccc4cncn4c3)C1=N2", "=", 1.6),
    ("O=C1c2cc(C(F)(F)F)ccc2N=C2N(c3ccc(Cl)cc3)CC[C@@]12O", "=", 10.8),
]

Numbers sourced from patent US20250163056A1.
